- System: Plasmodium falciparum
- assay-details: GSK_TCMDC: Inhibition of Plasmodium falciparum Dd2 in whole red blood cells, using parasite LDH activity as an index of growth. Test compounds present at 2uM
- Assay type: functional

# molecule, Inhibition, %
measured = [
    ("C=CCOC(=O)N1CCC(CNCc2cccc(-c3cccc(-c4nc5cc(F)ccc5[nH]4)c3)c2)C1.O=C(O)C(F)(F)F (centres undefined)", 49),
    ("CCCCCc1cc(OC(C)=O)c2c(c1)OC(C)(C)C=C2C1=CCN(Cc2ccccc2)CC1.O=C(O)/C=C/C(=O)O", 88),
    ("Clc1ncnc2scc(-c3ccc(Br)cc3)c12", 96),
    ("CN1CCC(C(=O)Nc2cccc(-c3ccc(-c4nc5cc(C(F)(F)F)ccc5[nH]4)s3)c2)CC1", 95),
    ("Oc1ccc(Nc2nc(NCc3ccccc3)c3ccccc3n2)cc1", 100),
    ("Cc1cccc2nc(-c3ccc(-c4ccc(NC(=O)NCc5cccc(F)c5)cc4)s3)[nH]c12", 43),
    ("CC(CN1CCN(C)CC1)C(=O)Nc1cccc(-c2cccc(-c3nc4ccccc4[nH]3)c2)c1 (centres undefined)", 19),
    ("COc1ccc2nccc([C@@H](O)CN3CCC(NCc4cc5ccccn5n4)CC3)c2c1.O=C(O)C(=O)O", 18),
    ("COC(=O)c1ccc2nc(-c3ccc(C(=O)NC4CCN(Cc5ccccc5)CC4)s3)[nH]c2c1", 71),
]
